study system: histone H4 (calf thymus) (calf, UniProt P62803 1-103)
measurement notes: ELISA

binder	binding result
PfNapL H227A (natural protein) MAANEGNQPIPPEEEKEISSLLESIKIDDDKMTDLTEEQKETLKKLKLYQKEYYDYESKFEYELFLLRQKYHDLYGPIYDKRREALVGNGEAKIGTPNLPEFWLRALRNNNTVSHVIEDHDEEILVYLNDIRCDYIKKNKEKKEGFILSFYFATNPFFSNSVLTKTYHMKCVDCDNEPVLLHTEATVIDWYDNKNILKKNVVKKQHNKNSREVKTVQQTVNRDSFFAFFTSHKVPNSNVIKQLSKHEVAQLEMIIEGDYEVALTIKERIIPYAVDYYLGIIIESESNSIVSDVDSSYSSSENNSNYNSYESNNSAYNDENSNVDTNEYDDNEEEEEGAKSNEDPLTS	binds
PfNapL T230A (natural protein) MAANEGNQPIPPEEEKEISSLLESIKIDDDKMTDLTEEQKETLKKLKLYQKEYYDYESKFEYELFLLRQKYHDLYGPIYDKRREALVGNGEAKIGTPNLPEFWLRALRNNNTVSHVIEDHDEEILVYLNDIRCDYIKKNKEKKEGFILSFYFATNPFFSNSVLTKTYHMKCVDCDNEPVLLHTEATVIDWYDNKNILKKNVVKKQHNKNSREVKTVQQTVNRDSFFHFFASHKVPNSNVIKQLSKHEVAQLEMIIEGDYEVALTIKERIIPYAVDYYLGIIIESESNSIVSDVDSSYSSSENNSNYNSYESNNSAYNDENSNVDTNEYDDNEEEEEGAKSNEDPLTS	binds

Origin of values: paper PMC2665062
